Reported Kd values for the following variants.
B1: scFv; the commonest letter at each place (parent)
chain 1: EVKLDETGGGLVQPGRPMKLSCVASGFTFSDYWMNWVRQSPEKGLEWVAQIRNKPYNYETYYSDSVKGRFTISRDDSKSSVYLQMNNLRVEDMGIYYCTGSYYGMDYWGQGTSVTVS
chain 2: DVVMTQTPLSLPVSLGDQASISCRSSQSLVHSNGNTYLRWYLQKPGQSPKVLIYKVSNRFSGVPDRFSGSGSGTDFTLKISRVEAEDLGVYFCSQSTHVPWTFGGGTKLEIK

# Variants of: B1
# Method description: Kd (Tite-Seq)
# Condition info: with fluorescein; format: scFv 4-4-20, heavy + light

{"Mutations": "chain 1 Y103T", "Kd": "2.35 µM"}
{"Mutations": "chain 1 S101D W108Y", "Kd": "≥ 10 µM"}
{"Mutations": "chain 1 Y102S Y107W", "Kd": "0.00128 µM"}
{"Mutations": "chain 1 T28D F29T W36L", "Kd": "≥ 10 µM"}
{"Mutations": "chain 1 N35A", "Kd": "≥ 10 µM"}
{"Mutations": "chain 1 T28G Y32K", "Kd": "7.33 µM"}
{"Mutations": "chain 1 T28P W36P", "Kd": "≥ 10 µM"}
{"Mutations": "chain 1 T28V Y32R", "Kd": "0.0245 µM"}
{"Mutations": "chain 1 T28S S30R", "Kd": "0.00265 µM"}
{"Mutations": "chain 1 Y103Q G104N", "Kd": "≥ 10 µM"}
{"Mutations": "chain 1 G100D S101W", "Kd": "≥ 10 µM"}
{"Mutations": "chain 1 Y102V M105N", "Kd": "0.522 µM"}
{"Mutations": "chain 1 M105S Y107W", "Kd": "≥ 10 µM"}
{"Mutations": "chain 1 Y102R M105N", "Kd": "0.0318 µM"}
{"Mutations": "chain 1 G100T S101N G104K", "Kd": "≥ 10 µM"}
{"Mutations": "chain 1 Y32V W33N", "Kd": "≥ 10 µM"}
{"Mutations": "chain 1 D31S W36P", "Kd": "≥ 10 µM"}
{"Mutations": "chain 1 Y103L M105C", "Kd": "≥ 10 µM"}
{"Mutations": "chain 1 Y107I W108R", "Kd": "≥ 10 µM"}
